Measured values drawn from patent US20210332145A1 for this set.

Field: EC50. Provide a value for each of the binders that follow.
assaySystem: T1, cyno BCMA with a His tag (ACROBiosystems, Catalog No.: BCA-052H7) (cyno)
T1 construct: Bought His-tagged recombinant protein
T1 sequence (chain, as listed by the source limits assumed): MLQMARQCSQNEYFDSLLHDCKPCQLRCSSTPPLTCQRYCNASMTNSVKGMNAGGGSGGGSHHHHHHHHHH
experimentalProtocol: ELISA, plate-coated cyno BCMA-His
Answers are plain numbers, in µg/mL.

Some binders with known EC50 results, for comparison:
Find the recorded EC50 belonging to SCT-Aa01(m/m) (antibody, V domains shown, Full IgG format: mouse IgG1 heavy chain constant region, mouse kappa light chain constant region) VH: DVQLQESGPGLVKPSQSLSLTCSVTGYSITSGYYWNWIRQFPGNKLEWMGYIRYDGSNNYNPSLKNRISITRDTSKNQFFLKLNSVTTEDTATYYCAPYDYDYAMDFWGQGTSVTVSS VL: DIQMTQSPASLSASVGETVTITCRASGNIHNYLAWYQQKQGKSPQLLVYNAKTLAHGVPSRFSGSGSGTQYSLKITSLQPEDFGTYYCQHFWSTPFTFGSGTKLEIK and report it.
0.0057

Find the recorded EC50 belonging to SCT-Aa04(m/m) (antibody, V domains shown, Full IgG format: mouse IgG1 heavy chain constant region, mouse kappa light chain constant region) VH: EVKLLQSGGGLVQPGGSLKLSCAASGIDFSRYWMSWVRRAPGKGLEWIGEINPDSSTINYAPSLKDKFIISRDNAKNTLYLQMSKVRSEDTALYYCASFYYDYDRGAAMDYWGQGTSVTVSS VL: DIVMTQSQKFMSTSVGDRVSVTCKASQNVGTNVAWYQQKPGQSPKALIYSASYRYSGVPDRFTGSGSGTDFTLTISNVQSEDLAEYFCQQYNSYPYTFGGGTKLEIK and report it.
2.05

Dear reader, for each entry below, please note its EC50.
1. SCT-Aa18(h/h) (antibody, V domains shown, Full IgG format, chimeric: human IgG1 heavy chain constant region, human kappa light chain constant region) VH: EVQLQQSGPELVKPGASVKISCKASGYTFISYVMHWVKQKPGQGLEWIGYIIPYNDGTKYNEKFKGKATLTSDKSSSTAYMELSSLTSEDSAVYYCAKWGNWDEGTWFPYWGQGTLVTVSA VL: DVLMTQTPLSLPVSLGDQASFSCRSSQSIVHSDGNTYLEWYLQKPGQSPKLLIYKISNRFSGVPDRFSGSGSGTDFTLKISRVEAEDLGVYYCFQGSHVPWTFGGGTKLEIK
2. SCT-Aa13(h/h) (antibody, V domains shown, Full IgG format, chimeric: human IgG1 heavy chain constant region, human kappa light chain constant region) VH: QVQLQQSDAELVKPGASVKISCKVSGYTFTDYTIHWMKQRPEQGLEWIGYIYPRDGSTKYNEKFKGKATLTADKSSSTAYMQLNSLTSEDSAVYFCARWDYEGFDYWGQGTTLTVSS VL: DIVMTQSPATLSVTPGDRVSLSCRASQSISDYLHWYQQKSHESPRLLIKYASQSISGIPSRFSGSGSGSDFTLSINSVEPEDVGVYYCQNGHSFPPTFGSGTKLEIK
3. SCT-Aa09(m/m) (antibody, V domains shown, Full IgG format: mouse IgG1 heavy chain constant region, mouse kappa light chain constant region) VH: QVQLQQSDAELVKPGASVKISCKVSGYTFTDHTIHWMKQRPEQGLEWIGYFYPRDDNTKYNEKFKGKATLTADRSSSTAYMQLNSLTSEDSAVYFCARWDYEGFDYWGQGTTLTVSS VL: DIVMTQSPATLSVTPGDRVSLSCRASQSIRDYLHWYQQKSHESPRLLIKYASQSISGIPSRFSGSGSGSDFTLSINSVEPEDVGVYYCQNGHSFPPTFGSGTKLEIK
4. SCT-Aa12(m/m) (antibody, V domains shown, Full IgG format: mouse IgG1 heavy chain constant region, mouse kappa light chain constant region) VH: QVQLQQSDAELVKPGASVKISCKVSGYTFTDYTIHWMKQRPEQGLEWIGYIFPSDGSTKYNEKFKGKATLTADKSSSTAYMQLNSLTSDDSAVYFCARWDYEGFDYWGQGTTLTVSS VL: DIVMTQSPATLSVTPGDRVSLSCRASQSISDYLNWYQQKSHESPRLLIKYASQSISGIPSRFSGSGSGSDFTLSINSVEPEDVGVYYCQNGHSFPPTFGSGTKLEIK
5. SCT-Aa16(h/h) (antibody, V domains shown, Full IgG format, chimeric: human IgG1 heavy chain constant region, human kappa light chain constant region) VH: EVQLQQSGPELVKPGASVKMSCKGSGYTFTNYIMHWVKQKPGQGLEWIGYIIPYNDNTKYNEKFKGKATLTSDKSSSTAYMELSSLTSEDSAVYYCATYEYDVGLDYWGQGTTLTVSS VL: DLQMTQTTSSLSASLGDRVTISCSARQGIVNYLNWYQQKPDGTVKLLIYNTSSLHSGVPSRFSGSGSGTDYSLTISNLEPEDIATYYCQQYSKLPWTFGGGTKLEIK
6. SCT-Aa02(h/h) (antibody, V domains shown, Full IgG format, chimeric: human IgG1 heavy chain constant region, human kappa light chain constant region) VH: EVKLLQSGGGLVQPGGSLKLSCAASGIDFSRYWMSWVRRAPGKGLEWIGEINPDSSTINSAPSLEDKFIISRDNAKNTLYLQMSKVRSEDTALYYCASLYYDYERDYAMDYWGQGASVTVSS VL: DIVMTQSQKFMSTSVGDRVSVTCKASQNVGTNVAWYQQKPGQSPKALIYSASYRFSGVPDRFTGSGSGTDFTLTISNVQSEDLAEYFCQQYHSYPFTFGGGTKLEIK

1. 0.0788
2. 0.131
3. 5.57
4. 9.74
5. 0.0778
6. 0.0433
